All figures here come from patent US20250195513A1.

# EXPERIMENTAL TARGET: IRAK4 (Homo sapiens)
# Construct: endogenous in cells; host or cells: Karpas299
# Sequence (Q9NWZ3 1-460): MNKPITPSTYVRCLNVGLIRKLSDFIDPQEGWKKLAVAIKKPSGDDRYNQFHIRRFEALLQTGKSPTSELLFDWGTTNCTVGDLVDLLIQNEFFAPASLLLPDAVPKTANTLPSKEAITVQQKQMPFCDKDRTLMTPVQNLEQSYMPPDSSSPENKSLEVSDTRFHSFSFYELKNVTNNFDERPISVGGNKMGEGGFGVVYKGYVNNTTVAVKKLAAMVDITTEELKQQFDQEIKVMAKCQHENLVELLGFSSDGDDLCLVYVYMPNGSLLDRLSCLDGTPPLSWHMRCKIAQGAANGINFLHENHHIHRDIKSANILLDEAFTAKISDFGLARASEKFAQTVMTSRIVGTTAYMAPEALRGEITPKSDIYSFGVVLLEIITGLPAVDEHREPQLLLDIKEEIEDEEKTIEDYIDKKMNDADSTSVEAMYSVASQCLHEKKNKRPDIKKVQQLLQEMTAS
# TEST DESCRIPTION: IRAK4 Degradation Assay (Karpas299, HTRF/TR-FRET)
# Format: cell-based
# TEST SETTINGS: Karpas-299 cells, 24 h treatment; read-out: IRAK4 in Karpas-299 (24 h) DC50
# Procedure: IRAK4 degradation was measured using a TR-FRET-based method (Degorce, François, et al. Current chemical genomics. 2009, 3: 22). […] IRAK4 level was quantitated using the HTRF kit as described by the manufacturer manual (Cisbio). FRET signals were measured using a PHERAstar FSX reader (BMG Labtech). […] The inhibition (degradation) percentage of the compound was calculated by the following equation: […]
Listing of entries alongside the reported DC50.
Form entry: value (nM) — number only.

{"columns": ["SMILES INPUT", "DC50 (nM)"],
 "data": [
  ["CC(C)(O)c1cc2nn([C@H]3CC[C@H](N4CCN(C(=O)[C@@H]5CCN(c6cc(F)c([C@H]7CCC(=O)NC7=O)c(F)c6)C5)CC4)CC3)cc2cc1NC(=O)c1ccc2cc(C#N)cnn12", 0.4],
  ["CC(C)(O)c1cc2nn([C@H]3CC[C@H](N4CCN(C(=O)C5CN(c6cc(F)c([C@H]7CCC(=O)NC7=O)c(F)c6)C5)CC4)CC3)cc2cc1NC(=O)c1ccc2cc(C#N)cnn12", 0.4],
  ["COc1cc2nn([C@H]3CC[C@H](N4CCN(C(=O)[C@@H]5CCN(c6cc(F)c(N7CCC(=O)NC7=O)c(F)c6)C5)CC4)CC3)cc2cc1NC(=O)c1cccc(C(F)(F)F)n1", 7.8],
  ["O=C1CCN(c2c(F)cc(N3CC(C(=O)N4CCN([C@H]5CC[C@H](n6cc(NC(=O)c7cnn(-c8ccnc(NCC9CC9)c8)n7)c(C(F)F)n6)CC5)CC4)C3)cc2F)C(=O)N1", 5],
  ["NC(=O)c1nn(-c2ccc(N3CCN(C(=O)[C@@H]4CCN(c5cc(F)c([C@H]6CCC(=O)NC6=O)c(F)c5)C4)CC3)nc2)cc1NC(=O)c1coc(-c2ccnc(NCC(F)(F)F)c2)n1", 2.6],
  ["CC(C)(O)c1cc2nn(C3CCN(C4CCN(C(=O)[C@@H]5CCN(c6cc(F)c([C@H]7CCC(=O)NC7=O)c(F)c6)C5)CC4)CC3)cc2cc1NC(=O)c1cccc(C(F)(F)F)n1", 0.3],
  ["COc1cc(N2CC(C(=O)N3CCN([C@H]4CC[C@H](n5cc6cc(NC(=O)c7ccc8cc(C#N)cnn78)c7c(c6n5)OCO7)CC4)CC3)C2)ccc1[C@H]1CCC(=O)NC1=O", 1.3]
]}

Please examine the following record next.
For IRAK4 (Homo sapiens), provide DC50 of "COc1cc2nn([C@H]3CC[C@H](N4CCN(C(=O)[C@@H]5CCN(c6ccc(N7CCC(=O)NC7=O)cc6)C5)CC4)CC3)cc2cc1NC(=O)c1cccc(C(F)(F)F)n1" please.
2
